# credit: PubChem BioAssay AID1996

test-context: buffer; pH 7.4; 200.0 µM
Label scheme for solubility kinetic: category 1 = under 6 µg/mL, category 2 = from 6 µg/mL up to 30 µg/mL, category 3 = 30 µg/mL and over

INSERT INTO results (molecule, assigned_category) VALUES
  ('CN(C)CCNC(=O)C(=O)C1C(=O)Nc2ccccc21 (centres undefined)', 'category 3'),
  ('CC(C)c1onc(C(=O)N2CCN(c3ccccc3)CC2)c1[N+](=O)[O-]', 'category 1'),
  ('NC(=[NH2+])SCC1=CCS(=O)(=O)C1.[Br-]', 'category 3');

input: Given COc1ccc(OCC(=O)OC(C)CN2CCCCC2)cc1 (centres undefined) , name the class its solubility kinetic places it in.
output: category 3

input: And the next one, "COc1cccc(/C=C/C(=O)OCC(=O)NC2CCCCCCC2)c1" ?
output: category 2
